Quick reference for inhibition among some molecules
Molecular target: NAD-dependent protein deacetylase sirtuin-1 (Homo sapiens) (UniProt Q96EB6)
Sequence (whole entry): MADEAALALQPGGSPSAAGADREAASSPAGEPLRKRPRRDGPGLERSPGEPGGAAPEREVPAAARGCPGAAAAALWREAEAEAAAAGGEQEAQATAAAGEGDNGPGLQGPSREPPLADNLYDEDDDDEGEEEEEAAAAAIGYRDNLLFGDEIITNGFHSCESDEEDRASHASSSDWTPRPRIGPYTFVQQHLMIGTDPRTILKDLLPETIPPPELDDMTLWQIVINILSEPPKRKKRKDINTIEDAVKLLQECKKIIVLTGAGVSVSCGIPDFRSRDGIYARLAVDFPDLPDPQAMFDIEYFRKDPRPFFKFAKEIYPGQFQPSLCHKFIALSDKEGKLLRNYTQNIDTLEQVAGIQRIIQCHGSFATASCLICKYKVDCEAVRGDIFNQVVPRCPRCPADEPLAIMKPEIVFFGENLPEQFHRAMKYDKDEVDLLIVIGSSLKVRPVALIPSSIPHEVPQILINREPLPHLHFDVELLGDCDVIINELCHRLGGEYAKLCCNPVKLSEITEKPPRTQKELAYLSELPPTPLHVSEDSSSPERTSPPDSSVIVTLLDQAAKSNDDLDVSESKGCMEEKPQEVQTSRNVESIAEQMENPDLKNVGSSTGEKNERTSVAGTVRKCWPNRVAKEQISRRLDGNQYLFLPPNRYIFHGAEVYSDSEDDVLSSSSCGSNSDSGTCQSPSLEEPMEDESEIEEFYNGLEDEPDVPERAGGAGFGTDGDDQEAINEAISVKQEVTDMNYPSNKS
Assay: Inhibition of human recombinant SIRT1 at 50 uM using AMC-p53 (379 to 382 residues) as substrate incubated for 45 mins followed by NAD+ addition measured after 30 mins by fluorescence assay relative to control
The figure you give is taken to be in %; do not add the unit.

Short answer for `CCCCCCCCn1c(-c2ccc(-c3cccc(-c4ccc(F)cn4)c3)cc2)nc2cc(C(=O)OCC)ccc21` : inhibition was 22

Short answer for `CCOC(=O)c1ccc(N2CCN(CCn3c(-c4ccc(-c5ccc(OC(F)(F)F)cc5)cc4)nc4cc(C(=O)OCC)ccc43)CC2)c(N)c1` : inhibition was 24.6

Short answer for `CCOC(=O)c1ccc(N2CCN(CCn3c(-c4ccc(-c5cncc(-c6ccc(F)cc6)c5)cc4)nc4cc(C(=O)OCC)ccc43)CC2)c(N)c1` : inhibition was 20.6

Short answer for `CCCCCCCCn1c(-c2ccc(-c3ccccc3)cc2)nc2cc(C(=O)OCC)ccc21` : inhibition was 23.9

meta.source: ChEMBL document CHEMBL4190173
